target: Sigma non-opioid intracellular receptor 1 (Cavia porcellus, UniProt Q60492); assay: Displacement of [3H]-(+)-pentazocine from sigma 1 receptor in Dunkin Hartley guinea pig membrane after 180 mins by liquid scintillation counting analysis
Sequence (Q60492 whole entry): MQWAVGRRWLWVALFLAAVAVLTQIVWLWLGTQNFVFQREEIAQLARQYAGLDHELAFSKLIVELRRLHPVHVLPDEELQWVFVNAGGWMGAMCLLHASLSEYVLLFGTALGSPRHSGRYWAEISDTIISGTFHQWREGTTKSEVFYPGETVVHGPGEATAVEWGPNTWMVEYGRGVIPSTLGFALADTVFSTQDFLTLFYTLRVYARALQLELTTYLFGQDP
Value Kind: Ki (µM)
Use µM as the unit, but write only the number.

Ki in this record for `O=C1CCc2ccc(OCCCN3CCCC3)cc2N1Cc1ccccc1` : 0.0238

Ki in this record for `O=C1CCN(CCCOc2ccc3c(c2)N(Cc2ccccc2)C(=O)CC3)CC1` : 0.0982

Ki in this record for `CC1CCN(CCCOc2ccc3c(c2)N(Cc2ccc(F)cc2)C(=O)CC3)CC1` : 0.00077

Ki in this record for `O=C1CCc2ccc(OCCCN3CCCCC3)cc2N1Cc1ccccc1` : 0.00184

Ki in this record for `O=C1CCc2ccc(OCCCN3CCOCC3)cc2N1Cc1ccccc1` : 0.0148
